- SYSTEM_TESTED: KRas wild type (Homo sapiens (Human))
- Sequence (P01116-2 other isoform, or with tags, fused parts or gaps): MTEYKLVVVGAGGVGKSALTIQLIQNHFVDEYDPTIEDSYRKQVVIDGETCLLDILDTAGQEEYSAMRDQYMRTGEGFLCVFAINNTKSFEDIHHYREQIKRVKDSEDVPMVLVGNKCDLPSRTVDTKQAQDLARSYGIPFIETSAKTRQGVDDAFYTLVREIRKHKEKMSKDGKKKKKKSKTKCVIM
- RUN_DESCRIPTION: Ras GTP binding domain inhibition assay (labeled GTP)
- MEASUREMENT_PARAMETERS: 20 μM compound; KRas wild type; read-out: % Inhibition at 20 μM of K-Ras mutant and wild-type protein, KRas wild type
MEASUREMENT_KIND: inhibition at 20 µM

Give me inhibition at 20 µM for each of these compounds, listed below.
1. Cn1ccnc1-c1nc(NCCOC2CC2)c2c(-c3ccccc3)c(-c3ccccc3)sc2n1 [drawing 3576]
2. CC(C)Oc1ccc(-c2c(-c3ccccc3)sc3c(O)nc(-c4nccn4C)nc23)cc1F [drawing 3611]

Result:
25 to 50%
25 to 50%

###

- SYSTEM_TESTED: KRas G12D mutant protein (Homo sapiens (Human), UniProt P01116, G12D)
- Sequence (P01116-2 other isoform, or with tags, fused parts or gaps G12D): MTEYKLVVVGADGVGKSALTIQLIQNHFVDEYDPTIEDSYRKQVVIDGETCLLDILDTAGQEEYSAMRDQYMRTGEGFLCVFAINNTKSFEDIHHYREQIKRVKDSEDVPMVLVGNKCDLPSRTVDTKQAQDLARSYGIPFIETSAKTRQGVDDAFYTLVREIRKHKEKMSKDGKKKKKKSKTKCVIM
- RUN_DESCRIPTION: Ras GTP binding domain inhibition assay (labeled GTP)
- MEASUREMENT_PARAMETERS: at 20 μM; read-out: KRas G12D % Inh.
- Protocol: The following method was developed as specific assay for KRas G12D mutant protein. Buffer-I: • 50 mM Tris, pH 7.5 • 150 mM NaCl (optional) • 1 mM MgCl2 • 1 mM DTT. • KRas G12D mutant protein was expressed as a His-tagged protein. […]
Provide the reported inhibition at 20 µM of each item.

Sample answers from the record:
| MOLECULE | inhibition at 20 µM |
| --- | --- |
| Oc1nc(-c2ccccn2)nc2c(-c3ccccn3)csc12 [drawing 3768] | 25 to 50% |
| O=C(c1cc2nc(-c3ccccn3)nc(O)c2s1)N1CCN(c2ccccc2)CC1 [drawing 3713] | 51 to 75% |

Give me inhibition at 20 µM for each of these molecules, listed below.
1. COCCNc1nc(-c2nccn2C)nc2sc(-c3ccccc3)c(-c3ccc(OC)cc3)c12 [drawing 3907]
2. CC(C)c1csc2c(O)nc(-c3ccccn3)nc12 [drawing 3806]

Result:
25 to 50%
51 to 75%

###

Provide the reported inhibition at 20 µM of each item.
- SYSTEM_TESTED: KRas G12C/Q61H double mutant (Homo sapiens (Human), UniProt P01116, G12C/Q61H)
- Sequence (P01116-2 other isoform, or with tags, fused parts or gaps G12C/Q61H): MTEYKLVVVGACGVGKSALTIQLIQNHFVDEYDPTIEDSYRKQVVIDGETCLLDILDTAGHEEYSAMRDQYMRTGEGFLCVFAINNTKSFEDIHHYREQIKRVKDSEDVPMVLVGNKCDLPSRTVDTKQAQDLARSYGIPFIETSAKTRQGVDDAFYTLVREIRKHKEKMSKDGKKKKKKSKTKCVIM
- RUN_DESCRIPTION: Ras GTP binding domain inhibition assay (labeled GTP)
- MEASUREMENT_PARAMETERS: 20 μM compound; KRas G12C/Q61H double mutant; read-out: % Inhibition at 20 μM of K-Ras mutant and wild-type protein, KRas G12C Q61H

Sample answers from the record:
| COMPOUND | inhibition at 20 µM |
| --- | --- |
| Nc1cccc(-c2csc3c(O)nc(-c4ccccn4)nc23)n1 [drawing 3514] | 51 to 75% |
| Cc1sc2nc(-c3ccccn3)nc(N)c2c1Br [drawing 3484] | 25 to 50% |
| COCCNc1nc(-c2ccccn2)nc(-c2cccc(OCCN(C)C)c2)c1Oc1ccccc1 [drawing 3529] | 1 to 25% |
| Cc1sc2c(O)nc(-c3ccccn3)nc2c1C(=O)N1CCN(c2ccccc2)CC1C (centres unmarked) [drawing 3509] | 51 to 75% |

As a next step, examine the compound that follows.
Per the records, this compound ( COC(=O)c1nc(-c2ccccn2)nc(O)c1O [drawing 3547] ) has inhibition at 20 µM equal to 76 to 100%

###

- SYSTEM_TESTED: KRas G12D/Q61H double mutant (Homo sapiens (Human), UniProt P01116, G12D/Q61H)
- Sequence (P01116-2 other isoform, or with tags, fused parts or gaps G12D/Q61H): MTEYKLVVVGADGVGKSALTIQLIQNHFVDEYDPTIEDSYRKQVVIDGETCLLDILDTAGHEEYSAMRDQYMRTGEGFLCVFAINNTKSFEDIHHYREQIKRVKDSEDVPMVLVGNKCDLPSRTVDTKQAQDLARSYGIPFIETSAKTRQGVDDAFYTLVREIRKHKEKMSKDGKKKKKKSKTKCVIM
- RUN_DESCRIPTION: Ras GTP binding domain inhibition assay (labeled GTP)
- MEASUREMENT_PARAMETERS: at 20 μM; read-out: KRas G12D Q61H % Inh.
MEASUREMENT_KIND: inhibition at 20 µM

| COMPOUND | inhibition at 20 µM |
| --- | --- |
| Oc1nc(-c2ccccn2)nc2c(-c3ccc4c(c3)CCCO4)csc12 [drawing 3774] | 25 to 50% |

Give me inhibition at 20 µM for each of these compounds, listed below.
1. COc1ccncc1CCNC(=O)c1csc2nc(-c3ccccn3)nc(N3CCOCC3)c12 [drawing 3669]
2. Nc1nc(-c2ccccn2)nc(C(=O)NCCc2ccncc2)c1Oc1ccccc1 [drawing 3869]
3. COc1cnc(CNC(=O)c2c(C)sc3c(O)nc(-c4ccccn4)nc23)[nH]c1=O [drawing 3841]
4. Oc1nc(-c2ccccn2)nc2c(-c3cncc(C(F)(F)F)c3)csc12 [drawing 3784]

Result:
1 to 25%
25 to 50%
0%
1 to 25%

Give me inhibition at 20 µM for each of these compounds, listed below.
1. Nc1nc(-c2ccccn2)nc2ccsc12 [drawing 3706]
2. COc1cc(C)c(-c2csc3c(O)nc(-c4ccccn4)nc23)cc1C [drawing 3741]
3. Nc1nc(-c2ccccn2)nc2c(Br)csc12 [drawing 3764]
4. O=C(c1csc2c(O)nc(-c3ccccn3)nc12)N1CCC(c2cccc(O)c2)C1 (stereo not drawn) [drawing 3712]
5. CCn1nc(C)cc1-c1csc2c(O)nc(-c3ccccn3)nc12 [drawing 3775]
6. O=C(c1csc2c(O)nc(-c3ccccn3)nc12)N1CCN(c2ccc(F)cc2)CC1 [drawing 3643]

Result:
25 to 50%
25 to 50%
25 to 50%
76 to 100%
51 to 75%
0%

Give me inhibition at 20 µM for each of these compounds, listed below.
1. CN(C)Cc1ccc(-c2csc3c(O)nc(-c4ccccn4)nc23)cc1F [drawing 3717]
2. COCCN(CCOC)c1nc(-c2ccccn2)nc2scc(C(=O)NCCc3ccc(OC)nc3)c12 [drawing 3681]
3. Oc1nc(-c2ccccn2)nc2c(-c3ccccc3OC3CCCCC3)csc12 [drawing 3738]
4. CCC(C)c1csc2c(OC)nc(-c3ccccn3)nc12 (stereo not drawn) [drawing 3790]
5. COc1cnc(CNC(=O)c2csc3c(O)nc(-c4ccccn4)nc23)[nH]c1=O [drawing 3838]

Result:
76 to 100%
1 to 25%
51 to 75%
51 to 75%
1 to 25%

Give me inhibition at 20 µM for each of these compounds, listed below.
1. O=C(c1csc2c(O)nc(-c3ccccn3)nc12)N1CCNC(c2ccc(Cl)cc2)C1 (stereo not drawn) [drawing 3843]
2. Cc1cnc(-c2ccccn2)nc1NC(=O)C(C)c1ccc(C#N)cc1 (stereo not drawn) [drawing 3686]

Result:
25 to 50%
1 to 25%

###

- SYSTEM_TESTED: KRas G12D/Q61H double mutant (Homo sapiens (Human), UniProt P01116, G12D/Q61H)
- RUN_DESCRIPTION: Ras GTP binding domain inhibition assay (labeled GTP)
- MEASUREMENT_PARAMETERS: at 20 μM; read-out: KRas G12D Q61H % Inh.
- Experimental: Buffer-I: • 50 mM Tris, pH 7.5 • 150 mM NaCl (optional) • 1 mM MgCl2 • 1 mM DTT. • KRas G12D mutant protein was expressed as a His-tagged protein. […] Then 22 μl of Cy3-GTP or Cy5-GTP was added to each well. The labeled GTP was incubated for 45 min. at room temperature. • Following GTP incubation, wells were washed 3× in Buffer-I, and 200 μl of Buffer-I were added to each well. • Following washes, the amount of bound labeled-GTP was measured with an Eppendorf AF2200 plate reader. […]
MEASUREMENT_KIND: inhibition at 20 µM

Sample answers from the record:
| MOLECULE | OBSERVED_VALUE |
| --- | --- |
| CNS(=O)(=O)CCCNC(=O)c1csc2nc(-c3ccccn3)nc(N3CCOCC3)c12 [drawing 3680] | 1 to 25% |
| NC(=O)C1CCCN1C(=O)c1cccc(-c2cc3nc(N)nc(O)c3s2)c1 (stereo not drawn) [drawing 3862] | 0% |
| COc1ccc(N2CCN(C(=O)c3csc4c(O)nc(-c5ccccn5)nc34)CC2)c(OC)c1 [drawing 3648] | 25 to 50% |
| Oc1nc(-c2ccccn2)nc2c(-c3cc(CN4CCCC4)ccc3F)csc12 [drawing 3821] | 51 to 75% |
| Cc1sc2nc(-c3ccccn3)nc(N)c2c1Br [drawing 3803] | 25 to 50% |

Give me inhibition at 20 µM for each of these molecules, listed below.
1. Oc1nc(-c2ccccn2)nc2scc(Br)c12 [drawing 3623]
2. O=C(COCc1cccnc1)Nc1nc(-c2ccccn2)nc2sccc12 [drawing 3701]
3. O=C(c1csc2c(O)nc(-c3ccccn3)nc12)N1CCN(Cc2cccc(O)c2)CC1 [drawing 3629]

Result:
["51 to 75%", "51 to 75%", "76 to 100%"]

Give me inhibition at 20 µM for each of these molecules, listed below.
1. O=C(c1csc2c(O)nc(-c3ccccn3)nc12)N1CCNC(Cc2cccc(F)c2)C1 (stereo not drawn) [drawing 3704]
2. COCCCCNC(=O)c1csc2nc(-c3ccccn3)nc(N(CCOC)CCOC)c12 [drawing 3682]
3. O=C(c1csc2c(O)nc(-c3ccccn3)nc12)N1CCN(Cc2ccc(O)cc2)CC1 [drawing 3653]
4. Oc1nc(-c2ccccn2)nc2c(CC3CCNCC3)csc12 [drawing 3805]
5. COc1cc(CCN(C)C(=O)c2csc3nc(-c4ccccn4)nc(N4CCOCC4)c23)ccn1 [drawing 3670]
6. OCC1(c2ccc(-c3csc4c(O)nc(-c5ccccn5)nc34)cc2)CC1 [drawing 3758]

Result:
["51 to 75%", "0%", "1 to 25%", "51 to 75%", "0%", "51 to 75%"]

Give me inhibition at 20 µM for each of these molecules, listed below.
1. O=C(c1csc2c(O)nc(-c3ccccn3)nc12)N1CCNC(c2ccccc2F)C1 (stereo not drawn) [drawing 3665]
2. COc1nc(-c2ccccn2)nc(Oc2cccc(C(F)(F)F)c2)c1OC [drawing 3870]
3. COc1cnc(CNC(=O)c2csc3nc(-c4ccccn4)nc(N)c23)[nH]c1=O [drawing 3835]
4. COc1ccc(C2CN(C(=O)c3csc4c(O)nc(-c5ccccn5)nc34)CCO2)cc1 (stereo not drawn) [drawing 3657]

Result:
1. 25 to 50%
2. 1 to 25%
3. 25 to 50%
4. 25 to 50%
